FYI, the data here is from ChEMBL document CHEMBL1201862.

TEST METHOD NOTES: reduction of Shn3 3'UTR-driven luciferase in osteoblasts – cell-based, Clone20 osteoblasts, firefly luciferase, cherry-picked, dose response (AID 624132);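 further: firefly luciferase luminescence from reporter carrying the Shn3 3'UTR in osteoblasts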
Type: functional
Calls of active or inactive are those of the source. No stated cut-off is given here; in the data, actives have a measured AC50 and inactives only a lower limit.
Write down the outcome that applies. Available outcomes: active, inactive

Query: // return assay outcome for O=C(Nc1ccc(F)c(F)c1)c1ccc(F)c(S(=O)(=O)N2CCC3(CC2)OCCO3)c1
Reply: active

Query: COc1cc(NC(=O)COc2cccc3c2OC(C)(C)C3)cc(OC)c1OC ?
Reply: active

Query: Cc1ccc(C)c(NC(=O)CN(C)C(=O)c2cccc(S(=O)(=O)N3CCN(Cc4ccccc4)CC3)c2)c1 ?
Reply: active

Query: CCS(=O)(=O)c1ccc2oc(SCC(=O)N3CCCCC3)nc2c1 ?
Reply: inactive
